Test system: OVCAR-8 ovarian
Test: NCI-60 one-dose screen, 48 h (100 = growth as untreated, 0 = no growth, -100 = all killed)
Conditions: 10 µM unless noted
The panel holds about 83,000 compounds, 20% with a hit somewhere; the sample as a whole holds those more often.
API: label(entry) gives condition met if the entry's growth is strictly smaller than 80%; on equality or larger values it gives condition not met.

INPUT: I'd appreciate it if you could check whether Cc1[nH]c(C(=O)Nc2ccc(C(=O)NCC3CCNCC3)cc2OC(C)C)c(Cl)c1Cl has growth smaller than 80%.
OUTPUT: condition not met

INPUT: I'd appreciate it if you could check whether Fc1ccc(-c2cn3c(-c4c[nH]c5ccc(Br)cc45)csc3n2)cc1 has growth smaller than 80%.
OUTPUT: condition met

INPUT: I'd appreciate it if you could check whether CN1CCN(c2ccc(Nc3nc(NCCNC(=O)c4ccc(F)cc4)c4sccc4n3)cc2)CC1 has growth smaller than 80%.
OUTPUT: condition met

INPUT: I'd appreciate it if you could check whether C1=CC(c2nn3c(-c4ccccc4)nnc3s2)=Cc2ccccc2O1 has growth smaller than 80%.
OUTPUT: condition met

INPUT: I'd appreciate it if you could check whether C=C(C)[C@@H]1CC[C@]2(COP(=O)(OCC)OCC)CC[C@]3(C)[C@H](CC[C@@H]4[C@@]5(C)CC[C@H](OP(=O)(OCC)OCC)C(C)(C)[C@@H]5CC[C@]43C)[C@@H]12 has growth smaller than 80%.
OUTPUT: condition met

INPUT: I'd appreciate it if you could check whether COCCOc1ccc2ncc(C#Cc3cncc(C(=O)Nc4ccc(CN5CCN(C)CC5)c(C(F)(F)F)c4)c3)n2n1 has growth smaller than 80%.
OUTPUT: condition met

INPUT: I'd appreciate it if you could check whether CCCCCCNC(=O)Oc1ccc(/C(=C(/C)c2ccc(OC)cc2)c2ccc(OCCN3CCCCCC3)cc2)cc1 has growth smaller than 80%.
OUTPUT: condition met

INPUT: I'd appreciate it if you could check whether CSc1ccc(C(=NNS(=O)(=O)c2ccc(C)cc2)c2ccc(Cl)cc2)cc1 has growth smaller than 80%.
OUTPUT: condition not met

INPUT: I'd appreciate it if you could check whether Cn1cc(-c2nn3cc(-c4ccncc4)nc3s2)c2cc(F)ccc21 has growth smaller than 80%.
OUTPUT: condition met

INPUT: I'd appreciate it if you could check whether COc1cc(/C=C2/C(=O)Nc3ccc(Cl)cc32)ccc1OCc1ccc(Cl)cc1 has growth smaller than 80%.
OUTPUT: condition not met

INPUT: I'd appreciate it if you could check whether C#C[C@]1(O)CC[C@H]2[C@@H]3CC=C4c5sc(Nc6cccc(F)c6)nc5CC[C@]4(C)[C@H]3CC[C@@]21C has growth smaller than 80%.
OUTPUT: condition met

* * *

Tested on: TK-10 renal
Test: NCI-60 one-dose screen, 48 h (100 = growth as untreated, 0 = no growth, -100 = all killed)
Conditions: 10 µM unless noted
The panel holds about 83,000 compounds, 20% with a hit somewhere; the sample as a whole holds those more often.
Provide the reported growth of each item.
Write it as a number; the unit % goes unstated.

INPUT: What growth value was documented for this compound, CCS(=O)(=O)Nc1ccc(C(=O)CC2(O)C(=O)Nc3ccccc32)cc1 (centres undefined) ?
OUTPUT: 122

INPUT: What growth value was documented for this compound, C/C(=N\NC(=O)/C=C/CC(=O)O)c1nnn(-c2ccc([N+](=O)[O-])cc2)c1C ?
OUTPUT: 94.1

INPUT: What growth value was documented for this compound, CN(C)c1cccc2c(S(=O)(=O)Nc3cccc(-c4csc(NC(=O)CCCCCN5CCN(CCO)CC5)n4)c3)cccc12 ?
OUTPUT: 120

INPUT: What growth value was documented for this compound, COc1ccc(-c2cc(-c3ccc(N(C)C)cc3)n3c(n2)nc2ccccc23)cc1 ?
OUTPUT: 40.9
